biological target: Sodium-dependent dopamine transporter (Homo sapiens, UniProt Q01959); assay: Enhancing of [3H]WIN35,428 binding to recombinant human DAT expressed in HEK293 cell membranes at 10 uM pre-incubated for 10 mins before radioligand addition and measured 90 mins after radioligand addition by micro beta scintillation counting analysis relative to control
Sequence (Q01959 whole entry): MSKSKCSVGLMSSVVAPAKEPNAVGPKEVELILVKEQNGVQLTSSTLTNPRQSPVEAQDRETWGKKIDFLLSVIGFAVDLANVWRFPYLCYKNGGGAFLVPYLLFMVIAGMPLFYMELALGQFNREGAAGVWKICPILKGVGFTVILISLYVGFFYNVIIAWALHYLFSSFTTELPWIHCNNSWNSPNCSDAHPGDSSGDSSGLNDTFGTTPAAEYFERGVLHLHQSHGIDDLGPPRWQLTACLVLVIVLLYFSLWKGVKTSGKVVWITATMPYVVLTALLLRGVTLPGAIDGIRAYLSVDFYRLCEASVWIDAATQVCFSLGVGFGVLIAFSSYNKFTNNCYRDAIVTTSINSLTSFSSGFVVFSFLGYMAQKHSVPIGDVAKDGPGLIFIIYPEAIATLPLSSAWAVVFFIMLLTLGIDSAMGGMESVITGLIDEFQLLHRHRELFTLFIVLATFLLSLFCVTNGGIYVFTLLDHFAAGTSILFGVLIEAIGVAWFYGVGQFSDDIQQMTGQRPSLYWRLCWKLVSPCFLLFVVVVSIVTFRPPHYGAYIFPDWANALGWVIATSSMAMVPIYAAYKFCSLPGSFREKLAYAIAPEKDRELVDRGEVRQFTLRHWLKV
Calls of active or inactive are those of the source. The calls are words filed in the database; no cut-off is given here.
REPORTED METRIC: Activity

These recorded examples may help you get a feel for the data.
{"SMILES DATA": "CNc1nc(C#Cc2ccc(Cl)s2)nc2c1ncn2[C@H]1[C@H](O)[C@H](O)[C@]2(C(=O)OCCC3CCCCC3)C[C@H]12", "Activity": "inactive"}
{"SMILES DATA": "CCOC(=O)[C@@]12C[C@@H]1[C@@H](n1cnc3c(NC)nc(C#Cc4ccc(Cl)s4)nc31)[C@H](O)[C@@H]2O", "Activity": "539%"}
{"SMILES DATA": "CNc1nc(C#Cc2ccc(Cl)s2)nc2c1ncn2[C@H]1[C@H](O)[C@H](O)[C@]2(C(=O)OCCc3ccccc3)C[C@H]12", "Activity": "inactive"}
{"SMILES DATA": "CNc1nc(C#Cc2ccc(Cl)s2)nc2c1ncn2[C@H]1[C@H](O)[C@H](O)[C@]2(C(=O)OCc3ccccc3)C[C@H]12", "Activity": "inactive"}
{"SMILES DATA": "CCCNc1nc(C#Cc2ccc(Cl)s2)nc2c1ncn2[C@@H]1O[C@H](C(=O)NC)[C@@H](O)[C@H]1O", "Activity": "84%"}
{"SMILES DATA": "CNc1nc(C#Cc2ccc(Cl)s2)nc2c1ncn2[C@H]1[C@H](O)[C@H](O)[C@]2(C(=O)OCCC(C)C)C[C@H]12", "Activity": "196%"}

Next up:
Ask: // output Activity; input CNc1nc(C#Cc2ccc(Br)s2)nc2c1ncn2[C@H]1[C@H](O)[C@H](O)[C@]2(C(=O)OC)C[C@H]12 ; system Sodium-dependent dopamine transporter (Homo sapiens, UniProt Q01959)
Reply: 370%
